TEST_TARGET: Signal peptidase I (Escherichia coli K-12, UniProt P00803)
Sequence (P00803 whole entry, the tested form may be a part): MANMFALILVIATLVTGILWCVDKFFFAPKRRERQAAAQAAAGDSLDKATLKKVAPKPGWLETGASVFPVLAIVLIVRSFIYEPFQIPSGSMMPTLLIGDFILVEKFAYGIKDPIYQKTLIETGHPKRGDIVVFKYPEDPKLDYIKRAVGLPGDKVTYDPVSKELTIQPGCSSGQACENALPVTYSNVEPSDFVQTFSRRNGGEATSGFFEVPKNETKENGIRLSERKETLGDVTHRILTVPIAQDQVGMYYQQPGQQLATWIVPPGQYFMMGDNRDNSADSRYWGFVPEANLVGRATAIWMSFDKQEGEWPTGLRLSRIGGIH
TEST_NAME: Binding affinity to recombinant 6His-tagged Escherichia coli LepB (77 to 324 residues) extracted from Escherichia coli BL21 (DE3) cells assessed as dissociation constant by MST analysis
PROPERTY: Kd (µM)
Numbers only, in µM.

Example results:
CC1C/C(=C\c2ccc(-c3ccc(Cl)c(C(F)(F)F)c3)s2)c2nc3ccccc3c(C(=O)O)c2C1 (racemic)	13.6
CC1C/C(=C\c2ccc(-c3cccc(Cl)c3)o2)c2nc3ccccc3c(C(=O)O)c2C1 (racemic)	42.1

Bench note: what Kd did CCCCCCc1ccc(-c2ccc(/C=C3\CC(C)Cc4c3nc3ccc(OC)cc3c4C(=O)O)cn2)cc1 (racemic) show?
20.9

---

TEST_NAME: Metabolic stability in rat liver microsomes assessed as hepatic extraction ratio at 100 uM preincubated for 5 mins followed by NADPH addition and measured upto 60 mins by LC-MS/MS analysis
Format: ADME, Microsome
SETUP_CONDITIONS: time < 65 min, read-out: ERH
PROPERTY: hepatic extraction ratio at 1 h, 100 µM

Entry CC1C/C(=C\c2ccc(-c3ccc(Cl)c(C(F)(F)F)c3)s2)c2nc3ccccc3c(C(=O)O)c2C1 (racemic) : reported hepatic extraction ratio at 1 h, 100 µM = ?
< 0.21

---

For each entry below, report its MIC value.
System: Enterococcus faecalis
TEST_NAME: microbe, parasite or virus in culture
Type: functional
SETUP_CONDITIONS: SF23-1, time 20 hrs
Description: Antimicrobial activity against Enterococcus faecalis SF23-1 harboring erythromycin-resistance rRNA methylase B, tetracycline efflux protein L and chloramphenicol-florfenicol resistance methylase assessed as inhibition of visible growth of bacteria incubated for 20 hrs by broth microdilution method
One number for each entry, in µg/mL.

Some compounds with known MIC results, for comparison:
CC1C/C(=C\c2cc3ccc(Br)cc3s2)c2nc3ccccc3c(C(=O)O)c2C1 (racemic)	16
COc1ccc2nc3c(c(C(=O)O)c2c1)CC(C)C/C3=C\c1ccc(-c2ccc(Cl)c(C(F)(F)F)c2)o1 (racemic)	64
CC1C/C(=C\c2ccc(-c3c(Cl)cc(C(F)(F)F)cc3Cl)cc2)c2nc3ccccc3c(C(=O)O)c2C1 (racemic)	8
CC1C/C(=C\c2ccc(-c3ccc(Cl)c(C(F)(F)F)c3)s2)c2nc3ccccc3c(C(=O)O)c2C1 (racemic)	1

Count: 4. Required value per item: MIC.
1. CC1C/C(=C\c2ccc(-c3ccc(Cl)c(C(F)(F)F)c3)nc2)c2nc3ccccc3c(C(=O)O)c2C1 (racemic)
2. CCCCCCc1ccc(-c2ccc(/C=C3\CC(C)Cc4c3nc3ccc(OC)cc3c4C(=O)O)cn2)cc1 (racemic)
3. CC1C/C(=C\c2ccc(-c3c(Cl)cc(Cl)cc3Cl)cc2)c2nc3ccccc3c(C(=O)O)c2C1 (racemic)
4. COc1ccc2nc3c(c(C(=O)O)c2c1)CC(C)C/C3=C\c1ccc(-c2ccc(Cl)c(C(F)(F)F)c2)cc1 (racemic)

8
8
4
4

Report MIC for each item below.
1. CC1C/C(=C\c2cccc(-c3cccc(Cl)c3Cl)c2)c2nc3ccccc3c(C(=O)O)c2C1 (racemic)
2. CC1C/C(=C\c2ccc(-c3cccc(Cl)c3Cl)cc2)c2nc3ccccc3c(C(=O)O)c2C1 (racemic)
3. CC1(C)C/C(=C\c2ccc(-c3cccc(Cl)c3Cl)o2)c2nc3ccccc3c(C(=O)O)c2C1

1: 8; 2: 8; 3: 8

---

TEST_NAME: Hemolytic activity in Kunming mouse erythrocytes assessed as hemolysis at 16 times of MIC measured after 1 hrs by absorbance based assay relative to control
Type: toxicity, cell-based, Erythrocyte
SETUP_CONDITIONS: read-out: Activity
PROPERTY: hemolysis at 1 h, 16 times of MIC (%)
Answers are plain numbers, in %.

CC1C/C(=C\c2ccc(-c3ccc(Cl)c(C(F)(F)F)c3)s2)c2nc3ccccc3c(C(=O)O)c2C1 (racemic)	74
CCCCCCc1ccc(-c2ccc(/C=C3\CC(C)Cc4c3nc3ccc(OC)cc3c4C(=O)O)cn2)cc1 (racemic)	72.5

Now examine the next entry.
hemolysis at 1 h, 16 times of MIC lookup needed for COc1ccc2nc3c(c(C(=O)O)c2c1)CC(C)C/C3=C\c1cccc(-c2ccc(Cl)c(C(F)(F)F)c2)c1 (racemic) , thanks.
63.5

---

TEST_NAME: Metabolic stability in mouse liver microsomes assessed as hepatic extraction ratio at 100 uM preincubated for 5 mins followed by NADPH addition and measured upto 60 mins by LC-MS/MS analysis
Format: ADME, Microsome
SETUP_CONDITIONS: time < 65 min, read-out: ERH
PROPERTY: hepatic extraction ratio at 1 h, 100 µM

Quick one: hepatic extraction ratio at 1 h, 100 µM of CC1C/C(=C\c2ccc(-c3ccc(Cl)c(C(F)(F)F)c3)s2)c2nc3ccccc3c(C(=O)O)c2C1 (racemic) ?
< 0.26

---

System: Enterococcus faecalis
TEST_NAME: Antimicrobial activity against Enterococcus faecalis ES01 harboring erythromycin-resistance rRNA methylase B and vanB-type vancomycin-resistance locus assessed as inhibition of visible growth of bacteria incubated for 20 hrs by broth microdilution method
Type: functional
Consider the following compounds; for each one, report its MIC.
Numbers only, in µg/mL.

COc1ccc2nc3c(c(C(=O)O)c2c1)CC(C)C/C3=C\c1cccc(-c2ccc(Cl)c(C(F)(F)F)c2)c1 (racemic)	4

Please look at the following compound next.
# MIC lookup, item CC1C/C(=C\c2ccc(-c3ccc(Cl)c(C(F)(F)F)c3)s2)c2nc3ccccc3c(C(=O)O)c2C1 (racemic)
2

---

TEST_NAME: Cytotoxicity against human Caco-2 cells assessed as cell viability at 1 time of MIC incubated for 48 hrs by CCK8 assay (reference value: 99.54 %)
Type: toxicity, cell-based
SETUP_CONDITIONS: read-out: Activity
For each of the compounds below, state its viability at 48 h, 1 time of MIC.
One number for each entry, in %.

Example compounds with recorded viability at 48 h, 1 time of MIC:
COc1ccc2nc3c(c(C(=O)O)c2c1)CC(C)C/C3=C\c1cccc(-c2ccc(Cl)c(C(F)(F)F)c2)c1 (racemic)	89.6
CC1C/C(=C\c2ccc(-c3ccc(Cl)c(C(F)(F)F)c3)s2)c2nc3ccccc3c(C(=O)O)c2C1 (racemic)	96.6

Look up viability at 48 h, 1 time of MIC: CCCCCCc1ccc(-c2ccc(/C=C3\CC(C)Cc4c3nc3ccc(OC)cc3c4C(=O)O)cn2)cc1 (racemic)
99.7

---

What viability at 48 h, 4 times of MIC was measured for each of the following?
TEST_NAME: Cytotoxicity against human Caco-2 cells assessed as cell viability at 4 times of MIC incubated for 48 hrs by CCK8 assay (reference value: 99.54 %)
Assay type: toxicity, cell-based
SETUP_CONDITIONS: read-out: Activity
Answers are plain numbers, in %.

// solved cases for viability at 48 h, 4 times of MIC follow
CCCCCCc1ccc(-c2ccc(/C=C3\CC(C)Cc4c3nc3ccc(OC)cc3c4C(=O)O)cn2)cc1 (racemic)	49.7
COc1ccc2nc3c(c(C(=O)O)c2c1)CC(C)C/C3=C\c1cccc(-c2ccc(Cl)c(C(F)(F)F)c2)c1 (racemic)	51.9

Item under review: CC1C/C(=C\c2ccc(-c3ccc(Cl)c(C(F)(F)F)c3)s2)c2nc3ccccc3c(C(=O)O)c2C1 (racemic) . Reported viability at 48 h, 4 times of MIC?
92.9

---

TEST_NAME: Metabolic stability in human liver microsomes assessed as half-life at 100 uM preincubated for 5 mins followed by NADPH addition and measured upto 60 mins by LC-MS/MS analysis
Assay type: ADME, Microsome
SETUP_CONDITIONS: time < 65 min
PROPERTY: half-life at 100 µM

Look at this compound and give its reported half-life at 100 µM. CC1C/C(=C\c2ccc(-c3ccc(Cl)c(C(F)(F)F)c3)s2)c2nc3ccccc3c(C(=O)O)c2C1 (racemic)
> 3.08 h

---

TEST_NAME: Cytotoxicity against human HEp-2 cells assessed as cell viability at 2 times of MIC incubated for 48 hrs by CCK8 assay (reference value: 100 %)
Type: toxicity, cell-based
SETUP_CONDITIONS: read-out: Activity
PROPERTY: viability at 48 h, 2 times of MIC
Returns: string containing the number followed by the unit.

Please review the entries below; each comes with its answer.
COc1ccc2nc3c(c(C(=O)O)c2c1)CC(C)C/C3=C\c1cccc(-c2ccc(Cl)c(C(F)(F)F)c2)c1 (racemic)	84.8%
CCCCCCc1ccc(-c2ccc(/C=C3\CC(C)Cc4c3nc3ccc(OC)cc3c4C(=O)O)cn2)cc1 (racemic)	94.1%

Now take the following molecule into account.
Report viability at 48 h, 2 times of MIC for CC1C/C(=C\c2ccc(-c3ccc(Cl)c(C(F)(F)F)c3)s2)c2nc3ccccc3c(C(=O)O)c2C1 (racemic) please.
93.7%

---

TEST_NAME: Metabolic stability in human liver microsomes assessed as hepatic extraction ratio at 100 uM preincubated for 5 mins followed by NADPH addition and measured upto 60 mins by LC-MS/MS analysis
Type: ADME, Microsome
SETUP_CONDITIONS: time < 65 min, read-out: ERH
PROPERTY: hepatic extraction ratio at 1 h, 100 µM

Which hepatic extraction ratio at 1 h, 100 µM is reported for this compound? CC1C/C(=C\c2ccc(-c3ccc(Cl)c(C(F)(F)F)c3)s2)c2nc3ccccc3c(C(=O)O)c2C1 (racemic)
< 0.27
